biological target: human α1G T-type channels (Homo sapiens, UniProt O43497); construct: expressed in transfected cells; host or cells: HEK 293; test: T-type calcium channel block, whole cell patch clamp in HEK cells (α1G); format: cell-based; conditions: HEK cells, patch clamp, mainly non-inactivated protocol; values above 10 μM shown as 10 μM, below 0.30 μM shown as 0.30 μM; read-out: T-type Calcium Channel Block α1G IC50
Sequence (O43497 whole entry): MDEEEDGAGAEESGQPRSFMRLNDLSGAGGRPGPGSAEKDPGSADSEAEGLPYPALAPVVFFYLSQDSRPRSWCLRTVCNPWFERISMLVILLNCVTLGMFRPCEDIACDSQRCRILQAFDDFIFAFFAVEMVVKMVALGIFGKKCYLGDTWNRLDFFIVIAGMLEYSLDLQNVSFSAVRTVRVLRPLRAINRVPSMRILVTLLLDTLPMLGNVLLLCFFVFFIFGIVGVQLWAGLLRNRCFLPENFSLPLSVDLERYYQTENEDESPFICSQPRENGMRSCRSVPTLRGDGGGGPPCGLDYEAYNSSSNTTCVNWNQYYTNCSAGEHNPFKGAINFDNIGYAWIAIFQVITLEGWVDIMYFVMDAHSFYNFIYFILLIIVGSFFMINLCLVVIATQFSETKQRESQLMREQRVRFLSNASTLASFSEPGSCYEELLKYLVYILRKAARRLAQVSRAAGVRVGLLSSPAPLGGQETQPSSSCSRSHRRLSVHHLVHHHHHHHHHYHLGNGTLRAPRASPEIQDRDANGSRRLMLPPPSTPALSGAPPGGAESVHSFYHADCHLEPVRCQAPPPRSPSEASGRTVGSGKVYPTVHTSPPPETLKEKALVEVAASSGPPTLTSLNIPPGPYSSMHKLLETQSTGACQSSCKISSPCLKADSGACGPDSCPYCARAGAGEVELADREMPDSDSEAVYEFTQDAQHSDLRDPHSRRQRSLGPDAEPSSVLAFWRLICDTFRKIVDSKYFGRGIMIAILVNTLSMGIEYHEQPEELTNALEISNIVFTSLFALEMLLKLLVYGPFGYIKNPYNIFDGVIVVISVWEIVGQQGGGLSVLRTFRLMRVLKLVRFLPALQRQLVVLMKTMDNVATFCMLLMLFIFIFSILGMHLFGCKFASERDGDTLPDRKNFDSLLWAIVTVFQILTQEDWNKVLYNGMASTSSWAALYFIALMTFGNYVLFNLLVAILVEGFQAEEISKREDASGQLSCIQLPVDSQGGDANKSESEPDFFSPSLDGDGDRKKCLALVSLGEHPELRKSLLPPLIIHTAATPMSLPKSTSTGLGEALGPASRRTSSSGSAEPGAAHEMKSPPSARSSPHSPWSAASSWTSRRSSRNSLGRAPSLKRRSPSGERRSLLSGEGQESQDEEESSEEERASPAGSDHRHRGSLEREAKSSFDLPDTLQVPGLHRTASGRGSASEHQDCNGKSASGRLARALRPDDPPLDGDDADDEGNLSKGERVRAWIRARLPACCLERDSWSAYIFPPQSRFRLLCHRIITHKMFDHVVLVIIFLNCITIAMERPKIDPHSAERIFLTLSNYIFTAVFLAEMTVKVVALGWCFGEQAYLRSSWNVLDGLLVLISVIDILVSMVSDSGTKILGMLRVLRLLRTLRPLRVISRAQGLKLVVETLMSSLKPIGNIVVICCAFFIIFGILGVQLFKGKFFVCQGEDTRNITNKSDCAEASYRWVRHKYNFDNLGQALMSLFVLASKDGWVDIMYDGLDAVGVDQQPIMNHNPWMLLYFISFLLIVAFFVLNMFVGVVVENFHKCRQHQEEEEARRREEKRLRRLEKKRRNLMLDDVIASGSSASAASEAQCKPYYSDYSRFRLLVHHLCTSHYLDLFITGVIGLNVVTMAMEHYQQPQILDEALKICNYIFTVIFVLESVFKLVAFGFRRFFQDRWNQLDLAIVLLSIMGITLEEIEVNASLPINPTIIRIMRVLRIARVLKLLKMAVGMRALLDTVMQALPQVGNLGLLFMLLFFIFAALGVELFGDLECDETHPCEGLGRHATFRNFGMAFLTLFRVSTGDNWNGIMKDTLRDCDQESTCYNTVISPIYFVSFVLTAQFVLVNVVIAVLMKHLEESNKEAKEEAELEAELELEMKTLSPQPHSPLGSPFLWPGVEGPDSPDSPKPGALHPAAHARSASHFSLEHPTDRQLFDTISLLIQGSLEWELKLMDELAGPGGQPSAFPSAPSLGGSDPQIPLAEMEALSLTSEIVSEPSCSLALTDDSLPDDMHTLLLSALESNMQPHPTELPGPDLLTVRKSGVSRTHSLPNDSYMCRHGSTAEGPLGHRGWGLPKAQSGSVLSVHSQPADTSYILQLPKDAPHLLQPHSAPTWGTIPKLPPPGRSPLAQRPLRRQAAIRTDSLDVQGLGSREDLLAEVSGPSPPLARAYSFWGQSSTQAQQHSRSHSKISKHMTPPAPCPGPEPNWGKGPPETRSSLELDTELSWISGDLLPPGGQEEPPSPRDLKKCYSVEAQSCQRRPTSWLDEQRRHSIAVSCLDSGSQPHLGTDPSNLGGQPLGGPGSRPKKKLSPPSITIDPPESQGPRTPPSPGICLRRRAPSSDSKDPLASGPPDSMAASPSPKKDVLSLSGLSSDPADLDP
For each of the compounds below, state its pIC50.
Friendly reminder that pIC50 comes from taking -log10 of the concentration in mol/L.

Any idea what its pIC50 is? The compound is "O=C(NCC1CCN(CCNS(=O)(=O)C(F)(F)F)CC1)c1cc(F)cc(Cl)c1"
5.49

Need pIC50 of "CC(C)NC(=O)NC1(CN2CCC(CNC(=O)c3cc(C(F)(F)F)cc(C(F)(F)F)c3)CC2)CCCC1" , thanks.
5.99

Looking for the measured pIC50 of "CN(C(=O)CN1CCC(CNC(=O)c2cccc(OC(F)(F)F)c2)CC1)C(C)(C)C" , can you help?
6.33

Please report the recorded pIC50 for CCS(=O)(=O)NC(CN1CCC(CC(=O)NC(c2cccc(F)c2)c2cccc(F)c2)CC1)C(C)(C)C (stereo not shown) .
5.16

Bench note: what pIC50 did "CC1(NC(=O)CN2CCC(CNC(=O)c3ccc(F)cc3)CC2)CCC1" show?
5.26

Entry "CC(C)(C)NCC(=O)N1CCC(CNC(=O)c2cc(F)cc(C(F)(F)F)c2)CC1" : reported pIC50 = ?
5.69

Requested read-out: pIC50. Entry: "Cc1cc(F)cc(C(=O)NCC2CCN(CCNS(=O)(=O)C(C)(C)C)CC2)c1"
5.90

Fill in the blank: the reported pIC50 of "O=C(NCC1CCN(CC2(NS(=O)(=O)C3CC3)CC2)CC1)c1cc(C(F)(F)F)cc(C(F)(F)F)c1" is ____.
6.42

Fill blank: measured pIC50 of the compound "Cc1cc(C)cc(C(=O)NCC2CCN(CCNC(=O)OC(C)(C)C)CC2)c1" is ____.
5.79

I have this compound here, "O=C(CC1CCN(C(=O)[C@@H]2CCCCN2)CC1)Nc1cc(C(F)(F)F)cc(C(F)(F)F)c1" , and I need its recorded pIC50.
5.32

Which pIC50 reading was recorded for the compound "COCC(C)(C)NC(=O)CN1CCC(CNC(=O)c2cccc(Cl)c2)CC1" ?
6.12
